- SUBJECT_OF_TEST: Abl WT (Homo sapiens (Human), UniProt P00519)
- TEST_DETAILS: Reaction Biology Corp. kinase assay, Abl WT
- Format: biochemical
- CONDITION_DESCRIPTION: 10 μM; compounds tested by Reaction Biology Corp.; read-out: % inhibition of kinase activity, Abl WT (category)
What inhibition at 10 µM was measured for each of the following?

[
  {
    "MOLECULE": "COC(=O)c1cc2cc(NCc3ccccc3OC(F)(F)F)cnc2[nH]1 [ND0092]",
    "SUBJECT_OF_TEST": "Abl WT (Homo sapiens (Human), UniProt P00519)",
    "inhibition at 10 µM": "10 to 50%"
  },
  {
    "MOLECULE": "COC(=O)c1cc2cc(Nc3ccc(I)cc3)cnc2[nH]1 [ND0108]",
    "SUBJECT_OF_TEST": "Abl WT (Homo sapiens (Human), UniProt P00519)",
    "inhibition at 10 µM": "10 to 50%"
  },
  {
    "MOLECULE": "COC(=O)c1cc2cc(NC(=O)c3cccc(Br)c3)cnc2[nH]1 [ND0075]",
    "SUBJECT_OF_TEST": "Abl WT (Homo sapiens (Human), UniProt P00519)",
    "inhibition at 10 µM": "10 to 50%"
  },
  {
    "MOLECULE": "COC(=O)c1cc2cc(NC(=O)c3c(Cl)cccc3Cl)cnc2[nH]1 [ND0072]",
    "SUBJECT_OF_TEST": "Abl WT (Homo sapiens (Human), UniProt P00519)",
    "inhibition at 10 µM": "> 50%"
  },
  {
    "MOLECULE": "COC(=O)c1cc2cc(NCc3ccc4[nH]ccc4c3)cnc2[nH]1 [ND0096]",
    "SUBJECT_OF_TEST": "Abl WT (Homo sapiens (Human), UniProt P00519)",
    "inhibition at 10 µM": "> 50%"
  },
  {
    "MOLECULE": "COC(=O)c1cc2cc(NCc3ccccc3Br)cnc2[nH]1 [ND0057]",
    "SUBJECT_OF_TEST": "Abl WT (Homo sapiens (Human), UniProt P00519)",
    "inhibition at 10 µM": "> 50%"
  },
  {
    "MOLECULE": "COC(=O)c1cc2cc(NCc3cc[nH]n3)cnc2[nH]1 [ND0098]",
    "SUBJECT_OF_TEST": "Abl WT (Homo sapiens (Human), UniProt P00519)",
    "inhibition at 10 µM": "> 50%"
  },
  {
    "MOLECULE": "COC(=O)c1cc2cc(NC(=O)c3ccccc3OC(F)(F)F)cnc2[nH]1 [ND0078]",
    "SUBJECT_OF_TEST": "Abl WT (Homo sapiens (Human), UniProt P00519)",
    "inhibition at 10 µM": "10 to 50%"
  }
]

Please go through the list and note inhibition at 10 µM for each molecule.
1. COC(=O)c1cc2cc(Nc3cccc(I)c3)cnc2[nH]1 [ND0103]
2. COC(=O)c1cc2cc(NCc3ncc[nH]3)cnc2[nH]1 [ND0095]

A:
1: 10 to 50%; 2: 10 to 50%
